Hello, the source for this data is patent US9309225B2, in case you need it.

measurement.kind: GI50 (µM)
Numbers only here, please. The scale is µM.

State its GI50 on OVCAR-8: COc1ccc(Nc2ncccc2C(=O)NCc2cn(Cc3cccc(Oc4ccccc4)c3)nn2)c(OC)c1 4.1

Record O=C(NCc1cn(Cc2cccc(Oc3ccccc3)c2)nn1)c1cccnc1Nc1ccc(F)cc1 : what is its GI50 with OVCAR-8? 3.72

Given the entry O=C(NCc1cn(Cc2cccc(Oc3ccccc3)c2)nn1)c1cccnc1Nc1ccccc1 , what GI50 was observed with OVCAR-8? 7.44

Lab note: need GI50 with OVCAR-8 for entry O=C(NCc1cn(Cc2cccc(Oc3ccccc3)c2)nn1)c1cccnc1NCc1ccc(Cl)cc1 , please look it up. 3.63

Item COc1cc(Nc2ncccc2C(=O)NCc2cn(Cc3cccc(Oc4ccccc4)c3)nn2)cc(OC)c1 with OVCAR-8 - GI50? 5.96

Return GI50 measured with OVCAR-8 given this compound: COc1ccc(Nc2ncccc2C(=O)NCc2cn(Cc3cccc(Oc4ccccc4)c3)nn2)cc1 5.96

---

Hi there, I'd appreciate the recorded GI50 for every entry that follows.
Please respond with the number in µM and leave the unit unwritten.

State its GI50 on CAKI-1: O=C(NCc1cn(Cc2cccc(Oc3ccccc3)c2)nn1)c1cccnc1Nc1ccc(F)cc1 3.41

Find GI50 (CAKI-1) for the entry COc1ccc(Nc2ncccc2C(=O)NCc2cn(Cc3cccc(Oc4ccccc4)c3)nn2)c(OC)c1 1.71

Fill in the recorded GI50 for this compound, with CAKI-1 as test system: COc1ccc(Nc2ncccc2C(=O)NCc2cn(Cc3cccc(Oc4ccccc4)c3)nn2)cc1 6.3

What value of GI50 on CAKI-1 does O=C(NCc1cn(Cc2cccc(Oc3ccccc3)c2)nn1)c1cccnc1NCc1ccc(Cl)cc1 have? 4.36

Fill in the recorded GI50 for this compound, with CAKI-1 as test system: O=C(NCc1cn(Cc2cccc(Oc3ccccc3)c2)nn1)c1cccnc1Nc1ccccc1 64.2

Look up GI50 with CAKI-1 for this compound: COc1cc(Nc2ncccc2C(=O)NCc2cn(Cc3cccc(Oc4ccccc4)c3)nn2)cc(OC)c1 6.3

---

- System: SK-OV-3
GI50 vs 4 µM: less than gives 1; not less than gives 0.

Take the compound COc1ccc(Nc2ncccc2C(=O)NCc2cn(Cc3cccc(Oc4ccccc4)c3)nn2)c(OC)c1 and say whether its GI50 is less than 4 µM. 1

For COc1cc(Nc2ncccc2C(=O)NCc2cn(Cc3cccc(Oc4ccccc4)c3)nn2)cc(OC)c1 , is the recorded GI50 below the cut-off of 4 µM? 0

Bench note: check whether O=C(NCc1cn(Cc2cccc(Oc3ccccc3)c2)nn1)c1cccnc1Nc1ccc(F)cc1 shows GI50 below 4 µM 1

Strictly below 4 µM: is that where GI50 of O=C(NCc1cn(Cc2cccc(Oc3ccccc3)c2)nn1)c1cccnc1Nc1ccccc1 sits? 0

Field: below-cutoff. Rule: recorded GI50 strictly less than 4 µM. Subject: O=C(NCc1cn(Cc2cccc(Oc3ccccc3)c2)nn1)c1cccnc1NCc1ccc(Cl)cc1 1

Say whether its GI50 is strictly beneath 4 µM. Entry: COc1ccc(Nc2ncccc2C(=O)NCc2cn(Cc3cccc(Oc4ccccc4)c3)nn2)cc1 0

---

Please go through the items and note down their GI50.
- Test system: HCC-2998
- experiment: NCI sixty human tumor cell line screen, Colon panel
- Assay type: cell-based
- cond: HCC-2998, Colon, NCI protocol
- Experimental: The in vitro anticancer activity studies for these N-((1-benzyl-1H-1,2,3-triazol-4-yl)methyl) arylamide analogues were carried out at the National Cancer Institute, USA. The N-((1-benzyl-1H-1,2,3-triazol-4-yl)methyl)arylamide analogues have been tested at NCI, USA, against sixty human tumor cell lines derived from nine cancer types (leukemia, non-small cell lung cancer, colon cancer, CNS cancer, melanoma cancer, ovarian cancer, renal cancer, prostate cancer and breast cancer). […]
Numbers only here, please. The scale is µM.

# returns recorded GI50 (system: HCC-2998) for COc1ccc(Nc2ncccc2C(=O)NCc2cn(Cc3cccc(Oc4ccccc4)c3)nn2)c(OC)c1 3.33

Missing value: GI50, HCC-2998, entry COc1ccc(Nc2ncccc2C(=O)NCc2cn(Cc3cccc(Oc4ccccc4)c3)nn2)cc1 . Fill in? 2.53

Tell me reported GI50 for O=C(NCc1cn(Cc2cccc(Oc3ccccc3)c2)nn1)c1cccnc1NCc1ccc(Cl)cc1 , tested with HCC-2998. 4.17

API: value(readout=GI50, system=HCC-2998) for record O=C(NCc1cn(Cc2cccc(Oc3ccccc3)c2)nn1)c1cccnc1Nc1ccccc1 3.7

Identify the measured GI50 of COc1cc(Nc2ncccc2C(=O)NCc2cn(Cc3cccc(Oc4ccccc4)c3)nn2)cc(OC)c1 for HCC-2998. 9.6

---

Please respond with reported GI50 for every item in the list.
// units = µM; emit number, no label

Kindly state the measured GI50 obtained for COc1cc(Nc2ncccc2C(=O)NCc2cn(Cc3cccc(Oc4ccccc4)c3)nn2)cc(OC)c1 with HOP-92. 4.67

Find GI50 (HOP-92) for the entry O=C(NCc1cn(Cc2cccc(Oc3ccccc3)c2)nn1)c1cccnc1NCc1ccc(Cl)cc1 4.23

Form: Entry = COc1ccc(Nc2ncccc2C(=O)NCc2cn(Cc3cccc(Oc4ccccc4)c3)nn2)cc1 | System = HOP-92 | GI50 = ____ 5.67

Request: GI50, test system HOP-92, entry O=C(NCc1cn(Cc2cccc(Oc3ccccc3)c2)nn1)c1cccnc1Nc1ccc(F)cc1 10.7

---

Entries with their measured GI50, system RXF 393:
Value expressed in µM; do not type the unit.

Which GI50 value is on record for COc1ccc(Nc2ncccc2C(=O)NCc2cn(Cc3cccc(Oc4ccccc4)c3)nn2)cc1 [Compound 1e] ? 3.77

Query (compound): O=C(NCc1cn(Cc2cccc(Oc3ccccc3)c2)nn1)c1cccnc1NCc1ccc(Cl)cc1 [Compound 1k] ; field requested: GI50 2.19

GET /values?readout=GI50&item= O=C(NCc1cn(Cc2cccc(Oc3ccccc3)c2)nn1)c1cccnc1Nc1ccc(F)cc1 [Compound 1b] 2.59

Using the record for COc1ccc(Nc2ncccc2C(=O)NCc2cn(Cc3cccc(Oc4ccccc4)c3)nn2)c(OC)c1 [Compound 1g] , report its GI50. 7.83

Fill in the blank: the reported GI50 of COc1cc(Nc2ncccc2C(=O)NCc2cn(Cc3cccc(Oc4ccccc4)c3)nn2)cc(OC)c1 [Compound 1i] is ____. 3.77

Reported GI50, compound O=C(NCc1cn(Cc2cccc(Oc3ccccc3)c2)nn1)c1cccnc1Nc1ccccc1 [Compound 1a] : ____ 5.69

---

- Tested on: MOLT-4
Labelling: GI50 reported below 4 µM becomes rule met; at or above becomes rule not met.

Record O=C(NCc1cn(Cc2cccc(Oc3ccccc3)c2)nn1)c1cccnc1Nc1ccccc1 [Compound 1a] : is its GI50 strictly below 4 µM? rule met

Given the entry COc1ccc(Nc2ncccc2C(=O)NCc2cn(Cc3cccc(Oc4ccccc4)c3)nn2)cc1 [Compound 1e] , would its reported GI50 be below 4 µM? rule met

Please indicate whether the reported GI50 of COc1cc(Nc2ncccc2C(=O)NCc2cn(Cc3cccc(Oc4ccccc4)c3)nn2)cc(OC)c1 [Compound 1i] is strictly below 4 µM. rule not met

Is the reported GI50 for COc1ccc(Nc2ncccc2C(=O)NCc2cn(Cc3cccc(Oc4ccccc4)c3)nn2)c(OC)c1 [Compound 1g] strictly below 4 µM? rule met

Given the entry O=C(NCc1cn(Cc2cccc(Oc3ccccc3)c2)nn1)c1cccnc1NCc1ccc(Cl)cc1 [Compound 1k] , would its reported GI50 be below 4 µM? rule met

---

A short record of GI50 observed with ACHN follows.
Enter your answer as a number in µM; do not include the unit.

Fill in the recorded GI50 for this compound, with ACHN as test system: O=C(NCc1cn(Cc2cccc(Oc3ccccc3)c2)nn1)c1cccnc1Nc1ccc(F)cc1 [Compound 1b] 4.79

What value of GI50 on ACHN does COc1ccc(Nc2ncccc2C(=O)NCc2cn(Cc3cccc(Oc4ccccc4)c3)nn2)cc1 [Compound 1e] have? 6.9

Provide value of GI50 for this record tested with ACHN: COc1ccc(Nc2ncccc2C(=O)NCc2cn(Cc3cccc(Oc4ccccc4)c3)nn2)c(OC)c1 [Compound 1g] 4.83

Lab request: please report GI50 under test system ACHN for O=C(NCc1cn(Cc2cccc(Oc3ccccc3)c2)nn1)c1cccnc1Nc1ccccc1 [Compound 1a] 11.1

GET /values?readout=GI50&system=ACHN&item= COc1cc(Nc2ncccc2C(=O)NCc2cn(Cc3cccc(Oc4ccccc4)c3)nn2)cc(OC)c1 [Compound 1i] 6.9

Hello, I am looking for reported GI50 with ACHN for O=C(NCc1cn(Cc2cccc(Oc3ccccc3)c2)nn1)c1cccnc1NCc1ccc(Cl)cc1 [Compound 1k] . Could you help? 4.03

---

- Tested on: MDA-MB-435
- experiment: NCI sixty human tumor cell line screen, Melanoma panel
- Type: cell-based
- cond: MDA-MB-435, Melanoma, NCI protocol
Sorting guide: entries reporting GI50 beneath 2000 nM go in the YES pile, the rest go in the NO pile.

State whether 2000 nM exceeds GI50 recorded for O=C(NCc1cn(Cc2cccc(Oc3ccccc3)c2)nn1)c1cccnc1Nc1ccccc1 [Compound 1a] . NO

Is GI50 strictly under 2000 nM for the entry O=C(NCc1cn(Cc2cccc(Oc3ccccc3)c2)nn1)c1cccnc1NCc1ccc(Cl)cc1 [Compound 1k] ? NO

Quick check: does COc1cc(Nc2ncccc2C(=O)NCc2cn(Cc3cccc(Oc4ccccc4)c3)nn2)cc(OC)c1 [Compound 1i] have GI50 under 2000 nM? NO

Is GI50 strictly under 2000 nM for the entry COc1ccc(Nc2ncccc2C(=O)NCc2cn(Cc3cccc(Oc4ccccc4)c3)nn2)c(OC)c1 [Compound 1g] ? YES

I wonder whether O=C(NCc1cn(Cc2cccc(Oc3ccccc3)c2)nn1)c1cccnc1Nc1ccc(F)cc1 [Compound 1b] has GI50 below 2000 nM. Can you tell? NO

Is 2000 nM strictly greater than the molecule's reported GI50? molecule: COc1ccc(Nc2ncccc2C(=O)NCc2cn(Cc3cccc(Oc4ccccc4)c3)nn2)cc1 [Compound 1e] YES
